B1: TPR 5TU (parent)
chain: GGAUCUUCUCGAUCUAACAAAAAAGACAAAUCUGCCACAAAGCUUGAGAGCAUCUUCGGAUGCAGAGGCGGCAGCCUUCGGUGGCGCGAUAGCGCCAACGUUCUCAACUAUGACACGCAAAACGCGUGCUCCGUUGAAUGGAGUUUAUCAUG

Variants of: B1
Assay: polymerase ribozyme fitness, log enrichment relative to wild type (log ratio); higher = more active; in vitro selection for triplet polymerase activity
Fewer inactive variants are shown than the library holds.
Give measured polymerase ribozyme fitness (log ratio) for each item. Keep answers brief.
Numbers only.

Variant Description: G59C G84A
polymerase ribozyme fitness (log ratio): -0.218

Variant Description: G50C A142U
polymerase ribozyme fitness (log ratio): -3.9

Variant Description: C96G G152U
polymerase ribozyme fitness (log ratio): -2.77

Variant Description: C93G C116U
polymerase ribozyme fitness (log ratio): -3.07

Variant Description: G50C A73G G84A
polymerase ribozyme fitness (log ratio): -4.1

Variant Description: C38U G140U
polymerase ribozyme fitness (log ratio): -2.77

Variant Description: U55A A122G
polymerase ribozyme fitness (log ratio): -0.237

Variant Description: A12G C35U U56C C57G G58U A60G
polymerase ribozyme fitness (log ratio): -0.194

Could I get polymerase ribozyme fitness (log ratio) for every one of these entries?
1. G84A G117U U139G U145C
2. G58U G128U
3. A19C G34A C57U G86C C96U A98U
4. A23G C93U
5. A24U U56A U148A
6. A20G C57A C69A C76U C96U
7. C96U A97G G124A C149A
8. A20C A22U C51U

Result:
-0.527
-3.02
-3.16
-3.77
-3.8
-1.94
-4.08
-0.386

Could I get polymerase ribozyme fitness (log ratio) for every one of these entries?
1. G84A G133C G143U
2. G86U A119G
3. A60G A115G U144C U146A A150U
4. C96U U101G G124C
5. G80A C85A A142C

Result:
[-3.92, -1.54, -3.85, -0.75, -2.14]
